target: Homeobox protein Hox-A13 (Mus musculus); experiment: inhibitors of HoxA13-DNA binding, primary screen, biochemical, fluorescence polarization, labeled oligonucleotide (AID 1185); settings: 15 min, higher = more signal, called active from +8 up or from −8 down
Calls of active or inactive are those of the source.
measurementLabel: z-score

| compound | observed |
| --- | --- |
| C=CCC(OC(C)=O)[C@@H]1[C@@H](N(Cc2cc3ccccc3o2)C(=O)c2cccc3ccccc23)c2cc(OCCCO)ccc2N1C(=O)c1ccc2ccccc2c1 (stereo not given in full) | -1.34 (inactive) |
| CN(C)CCCC[C@@H]1NC(=O)[C@@H]2C[C@H](C(=O)NCCCCCCNC(=O)CS)[C@H](c3cccc(OCCO)c3)N2C1=O | -2.01 (inactive) |
| CCCCC(=C=CC[C@H](O)c1ccc(OCCO)cc1)C[C@H](O)c1ccccn1 | -5.18 (inactive) |
| CC1CC/C=C\[C@H]2OC34C=CCN(CCN5CCOCC5)C(=O)[C@H]3N(CCCCCCO)C(=O)[C@@H]4C2C(=O)O1 (stereo not given in full) | -5.39 (inactive) |
| CCCC[C@@H]1C[C@H]1[C@@H](NC(=O)Cc1ccccc1)c1ccc(Cl)cc1 | -2.08 (inactive) |
| CO[C@H]1O[C@H](CO)[C@@H](OC(=O)Nc2ccc(C(F)(F)F)cc2)[C@H](OC(=O)Nc2ccccc2-c2ccccc2)[C@@H]1OC(=O)Nc1ccccc1-c1ccccc1 | -4.13 (inactive) |
| COc1ccc([Si](C)(C)[C@H]2[C@H](CCn3cc([C@H](O)c4ccccc4)nn3)O[C@@]3(C(=O)N(C)c4c(Br)cc(C)cc43)[C@@H]2C)cc1 | -2.54 (inactive) |
| COC(=O)[C@@]1(Cc2ccc(OC)cc2)[C@@H]2[C@@H](CC(=O)[C@H]2CC(=O)C(=O)N2CCCC2)CN1C(=O)c1ccccc1 | -2.95 (inactive) |
| COc1ccc(CCNC(=O)[C@@]2(Sc3ccc(C)cc3)CC(=O)N(Cc3cc(C(F)(F)F)cc(C(F)(F)F)c3)[C@@H]2c2ccc(CO)cc2)cc1 | -2.57 (inactive) |
| CC(C)C[C@@H]1NC(=O)[C@@]23C(=O)N[C@@H](Cc4ccccc4)C2[C@H](C)[C@@]2(C)O[C@H]2C3/C=C/C/C=C\CNC(=O)[C@@H](CC(C)C)NC1=O (stereo not given in full) | -6.77 (inactive) |
| O=C1C2C=CC(C(O)c3cccc(O)c3)N(Nc3ccccc3F)C2C(=O)N1c1ccccc1 (stereo not given) | -3.57 (inactive) |
| Cc1ccc(S[C@]2(C(=O)NC3CC3)CC(=O)N(Cc3cc(C(F)(F)F)cc(C(F)(F)F)c3)[C@@H]2c2ccc(CO)cc2I)cc1 | -2.13 (inactive) |
| CCC(CC)C(O)C1C=CC2C(=O)N(C)C(=O)C2N1N1CCCCC1 (stereo not given) | -6.35 (inactive) |
| COCC(=C=CC[C@@H](O)c1ccc(OCCO)cc1)C[C@@H](O)COCc1ccccc1 | -4.15 (inactive) |
| CCCCC(O)C1C=CC2C(=O)NC(=O)C2N1Nc1ccc(Cl)cc1Cl (stereo not given) | -4.78 (inactive) |

---

target: Follistatin-related protein 3 (Homo sapiens); assay: FSTL3 binders on small-molecule microarrays, primary screen, biochemical, small-molecule microarray, 635 nm fluorescence (AID 1105); settings: FSTL3 binding, higher = more signal;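 further: score merges emission near 667 nm and signal to noise per printed spot across three slides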
Class 1: composite z-score at least 0.09. Class 0: composite z-score below 0.09.

| compound | classification |
| --- | --- |
| CCCCC(O)C1C=CC2C(=O)N(C)C(=O)C2N1Nc1ccccc1 (configuration not stated) | 1 |
| COC(=O)[C@@]1(Cc2ccc(OC)cc2)[C@H]2c3cc(C(=O)N4CCCC4)n(CCc4ccc(OC)c(Br)c4)c3C[C@H]2CN1C(=O)c1ccccc1 | 0 |
| CN(C)CCCC[C@@H]1NC(=O)[C@@H]2C[C@H](C(=O)NCCCCCCNC(=O)CS)[C@H](c3cccc(OCCO)c3)N2C1=O | 0 |
| NC(=O)NCC#Cc1ccc2c(c1)[C@]1(C(=O)N2)[C@H](C(=O)Nc2nc3ccccc3s2)[C@H]2C(=O)O[C@H](c3ccccc3)[C@H](c3ccccc3)N2[C@@H]1c1ccc(OCCO)cc1 | 1 |
| CC(C)C[C@@H]1NC(=O)[C@@H]2C[C@H](C(=O)NCCCC[N+](C)(C)C)[C@H](c3ccc(O)cc3)N2C1=O | 1 |
| CN(C)C(=O)[C@]1(Cc2ccccc2CN=[N+]=[N-])N=C(c2ccc(OCCCO)cc2)O[C@@H]1c1ccccc1N=[N+]=[N-] | 1 |
| CN(C)CCCNC(=O)[C@@]1(Cc2ccccc2I)c2ccccc2C(=O)N(Cc2ccccc2)[C@H]1c1ccc(CO)cc1 | 1 |
